Provide the recorded pIC50 for the entries that follow.
- tested-on: Plasmodium yoelii
- test-protocol: Inhibition of hemozoin formation after 48 hrs in multi drug-resistant Plasmodium yoelii
Keep it numeric: pIC50 is minus log10 of the concentration in mol/L.

Return reported pIC50; argument: COc1ccc(C(Sc2nc3ccccc3s2)c2cccnc2)cc1 (stereo not given)
4.40

Form field: reported pIC50 of COc1ccc(C(Sc2ccc(Cl)cc2)c2cccnc2)cc1 (stereo not given)
4.40

What value of measured pIC50 is listed for COc1ccc(C(Sc2ccccc2C)c2cccnc2)cc1 (stereo not given) ?
4.59

Quick one: pIC50 for COc1ccc(C(Sc2ccccc2)c2cccnc2)cc1 (stereo not given) ?
4.74

Which value of pIC50 has been reported for COc1ccc(C(Sc2ccc(C)cc2)c2cccnc2)cc1 (stereo not given) in the records?
4.70

* * *

Please provide measured IC50 for the entries that follow.
- tested-on: Histidine-rich protein PFHRP-II (Plasmodium falciparum, UniProt P05227)
- Sequence (P05227 whole entry): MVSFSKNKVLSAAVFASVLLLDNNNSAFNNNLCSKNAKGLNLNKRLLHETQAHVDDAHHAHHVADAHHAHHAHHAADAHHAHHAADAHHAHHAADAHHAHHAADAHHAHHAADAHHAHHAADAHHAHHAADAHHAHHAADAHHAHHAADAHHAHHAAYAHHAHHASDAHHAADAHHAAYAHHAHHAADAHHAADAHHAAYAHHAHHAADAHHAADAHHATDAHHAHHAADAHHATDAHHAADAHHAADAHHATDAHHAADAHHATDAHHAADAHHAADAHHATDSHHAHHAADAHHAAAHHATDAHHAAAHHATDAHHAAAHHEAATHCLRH
- test-protocol: Inhibition of hemozoin formation after 48 hrs in chloroquine-sensitive Plasmodium falciparum NF54
Record the value in µM, omitting the unit from your answer.

I'd like to know its IC50. The molecule in question is COc1ccc(C(Sc2nc3ccccc3s2)c2cccnc2)cc1 (stereo not given)
35

Fill blank: measured IC50 of the molecule COc1ccc(C(Sc2ccccc2)c2cccnc2)cc1 (stereo not given) is ____.
11

Any idea what its IC50 is? The molecule is COc1ccc(C(Sc2ccccc2C)c2cccnc2)cc1 (stereo not given)
16

Which IC50 value is on record for COc1ccc(C(Sc2ccc(C)cc2)c2cccnc2)cc1 (stereo not given) ?
40

Please look up its IC50: COc1ccc(C(Sc2ccc(Cl)cc2)c2cccnc2)cc1 (stereo not given)
40

* * *

- System: Plasmodium falciparum
- test-protocol: Antiplasmodial activity after 48 hrs against chloroquine-sensitive Plasmodium falciparum NF54 by [3H]hypoxanthine uptake
- Type: functional, organism-based
value-kind: IC50
Report as: number unit

Under Plasmodium falciparum: IC50 value of COc1ccc(C(Sc2ccccc2C)c2cccnc2)cc1 (configuration not stated) ?
8 µM

Which measured IC50 belongs to COc1ccc(C(Sc2ccc3ccccc3c2)c2cccnc2)cc1 (configuration not stated) , tested on Plasmodium falciparum?
4 µM

Form field - read-out: IC50; system: Plasmodium falciparum; submitted item: COc1ccc(C(Sc2ccccc2)c2cccnc2)cc1 (configuration not stated)
5 µM

IC50 of COc1ccc(C(Sc2ccc(C)cc2)c2ccccn2)cc1 (configuration not stated) on Plasmodium falciparum?
20 µM

# returns recorded IC50 (system: Plasmodium falciparum) for COc1ccc(C(Sc2ccc(Cl)cc2)c2cccnc2)cc1 (configuration not stated)
12 µM

Recorded IC50 for COc1ccc(C(Sc2nc3ccccc3s2)c2cccnc2)cc1 (configuration not stated) with Plasmodium falciparum, please?
12 µM

Record lookup: for Plasmodium falciparum, what IC50 belongs to COc1ccc(C(Sc2ccc(C)cc2)c2cccnc2)cc1 (configuration not stated) ?
20 µM

* * *

- tested-on: Heme
- test-protocol: Binding affinity to heme by optical difference spectroscopy
Can you tell me Kd for the items I'm about to list?
Entry format: amount then unit.

Hello, I am looking for reported Kd with Heme for COc1ccc(C(Sc2ccc(C)cc2)c2cccnc2)cc1 (centres undefined) . Could you help?
12 µM

Lab note: need Kd for COc1ccc(C(Sc2ccccc2C)c2cccnc2)cc1 (centres undefined) on Heme, anyone have it?
26 µM

// map COc1ccc(C(Sc2nc3ccccc3s2)c2cccnc2)cc1 (centres undefined) to recorded Kd (system: Heme)
14 µM

Record COc1ccc(C(Sc2ccccc2)c2cccnc2)cc1 (centres undefined) : what is its Kd with Heme?
20 µM
